- Tested on: Calu-3
- Run description: cell viability relative to DMSO; higher = less toxic
- Test conditions: 72 h; 10 nM
Observed property: cell viability (%)

1. Cc1ccc(NC(=O)c2cccc(N(C)C)c2)cc1NC(=O)c1ccc(O)cc1
104
2. O=C(O)[C@]1(Cc2cccc(Nc3nccs3)n2)CC[C@@H](Oc2cccc(Cl)c2F)CC1
90.3
3. O=[N+]([O-])c1ccc2c(c1)S(=O)(=O)C=C2
95.2
4. O=C1NC(=O)C(c2ccccc2[N+](=O)[O-])=C1Nc1ccc(O)c(Cl)c1
91.9
5. CC(C)(C)C(=O)OCOC(=O)[C@@H]1N2C(=O)C[C@H]2S(=O)(=O)C1(C)C
97.4
6. COCC1(CO)C(=O)C2CCN1CC2 (centres undefined)
87.5
7. COc1ccc2c3c1O[C@H]1C[C@@H](O)C=C[C@@]31CCN(C)C2
91.2
8. CCCCN(Cc1ccc(C(=O)NO)cc1)C(=O)Nc1ccccc1
107
9. [Cl][Ti][Cl].c1cc[cH-]c1.c1cc[cH-]c1 [titanocene-dichloride]
97.1

---

Let's look at some compounds and their measured cell viability.
- System: U2OS
- Run description: cell viability relative to DMSO; higher = less toxic
- Test conditions: 72 h; 100 nM
Counter-ions that a name gives are not always drawn.
Observed property: cell viability (%)

1) O=c1cc(N2CCN(c3cccc(C(F)(F)F)c3)CC2)[nH]c(=O)n1C1CCCCC1
100
2) CCCC[N+]1(C)[C@@H]2C[C@@H](OC(=O)[C@H](CO)c3ccccc3)C[C@H]1[C@@H]1O[C@@H]12 (some centres undefined) [butylscopolamine-bromide]
101
3) CN1C(=O)c2c(nn(Cc3ccc(-c4cccc(F)n4)cc3)c2Nc2ccccc2)N2C1=N[C@@H]1CCC[C@@H]12
102
4) CC(C)Oc1ccc(-c2nc(-c3cccc4c3CC[C@@H]4NCCO)no2)cc1C#N
94.9
5) COc1ccc(OC)c([C@@H](O)CNC(=O)CN)c1
100
6) S=C(NCc1ccc2c(c1)OCO2)N1CCN(c2ncnc3c2oc2ccccc23)CC1
100
7) CN1[C@@H]2CC[C@H]1C[C@@H](OC(c1ccc(F)cc1)c1ccc(F)cc1)C2
101
8) C[C@H]1[C@H](NC(=O)/C(=N\OC(C)(C)C(=O)O)c2csc(N)n2)C(=O)N1S(=O)(=O)O
98.4
9) O=c1c(O[C@@H]2O[C@H](CO)[C@H](O)[C@H](O)[C@H]2O)c(-c2ccc(O)c(O)c2)oc2cc(O)cc(O)c12
101
10) CN(C)C(=O)Oc1ccc[n+](C)c1
106
11) CCCCN(CCCC)CCCOC(=O)c1ccc(N)cc1
95.1
12) CC1(C)N=C(N)N=C(N)N1OCCCOc1cc(Cl)c(Cl)cc1Cl
99.1
13) CNC(=O)c1ccccc1Sc1ccc2c(/C=C/c3ccccn3)n[nH]c2c1
103
14) O=C(CC12CC3CC(CC(C3)C1)C2)Nc1cccc2nc(NCCNCCO)ccc12
95.2
15) CCn1c(N)c(C(=O)NC)c(=O)c2ccc(C#C[C@@](C)(O)COC)nc21
98.3
16) O=C1NC(=O)C(c2ccccc2[N+](=O)[O-])=C1Nc1ccc(O)c(Cl)c1
101
17) COc1ccc(CNC(=O)c2sc3nc(C)cc(C)c3c2N)cc1
92.5
18) CC(C)SC(=N)N
96.3
19) C=CCOc1ccccc1OCC(O)CNC(C)C (centres undefined)
99.8
20) CCCCCCCCCCCCCCCC[N+](C)(C)C
97.5
21) CCC[C@@H]1C[C@@H](C(=O)N[C@@H]([C@H]2O[C@H](SC)[C@H](O)[C@@H](O)[C@H]2O)[C@H](C)Cl)N(C)C1 [CLINDAMYCIN HYDROCHLORIDE]
99.2
22) C=C[C@@]1(C)CC(=O)[C@]2(O)[C@@]3(C)[C@@H](O)CCC(C)(C)[C@@H]3[C@H](OC(=O)CCN(C)C)[C@H](OC(C)=O)[C@@]2(C)O1 [colforsin-daproate]
102
23) O=C(CN1C(=O)C2(CCCC2)NC[C@H]1c1cc(F)cc(F)c1)Nc1ccc2c(c1)C[C@@]1(C2)C(=O)Nc2ncccc21
102
24) NC(=O)N1c2ccccc2C=Cc2ccccc21 [carbamazepine]
101
25) C[C@@H](Oc1cc(-n2cnc3ccc(CN4CCN(C)CC4)cc32)sc1C(N)=O)c1ccccc1C(F)(F)F
67.9
26) CN(CCOc1ccc(-c2ccc3c(c2)OCO3)cc1C(C)(C)C)CC(=O)O
97.5
27) CCCC(=O)O[C@]1(C(=O)CO)CC[C@H]2[C@@H]3CCC4=CC(=O)CC[C@]4(C)[C@H]3[C@@H](O)C[C@@]21C [hydrocortisone-butyrate]
97.1
28) CN1CCN(CCCN2c3ccccc3Sc3ccc(S(=O)(=O)N(C)C)cc32)CC1
104
29) O=C(Nc1ccc(OC(F)(F)F)cc1)c1sccc1NCc1ccnc2ccccc12
99.8
30) CNC(=O)c1c(I)c(NC(C)=O)c(I)c(C(=O)O)c1I
104
31) Cc1c(CN2CCN(C(=O)[C@H](C)O)CC2)sc2c(N3CCOCC3)nc(-c3cnc(N)nc3)nc12
98.8
32) CCCCN(Cc1ccc(C(=O)NO)cc1)C(=O)Nc1ccccc1
99.3
33) C/C(=N\NC(=O)[C@@H]1C(=O)NC[C@H]1c1ccccc1)c1cccc(Br)c1
103
34) CNC(=O)[C@H](Cc1c[nH]c2ccccc12)NC(=O)[C@@H](CC(=O)NO)CC(C)C
85.8

---

- Tested on: Caco-2
- Run description: cell viability relative to DMSO; higher = less toxic
- Test conditions: 72 h; 10000 nM
Each record is given Criterion met if its reported cell viability is strictly below 70%. Records at or above 70% are given Criterion not met.

1) CCCC(=O)Nc1ncnc2c1ncn2[C@@H]1O[C@@H]2COP(=O)(O)O[C@H]2[C@H]1OC(=O)CCC
Criterion not met
2) CCc1nn(CCCN2CCN(c3cccc(Cl)c3)CC2)c(=O)n1CCOc1ccccc1
Criterion not met
3) COc1cc(OC2CCN(C)CC2)ccc1Nc1ncc2c(n1)n(C1CCCC1)c(=O)n2C
Criterion not met
4) N[C@@H](Cc1cc(-c2ccc(Cl)cc2Cl)cc(CP(=O)(O)O)c1O)C(=O)O
Criterion not met
5) Nc1cc(C(F)(F)F)c(-c2nc(N3CCOCC3)nc(N3CCOCC3)n2)cn1
Criterion met
6) CCN(CC)CCNc1ccc(CO)c2sc3ccccc3c(=O)c12
Criterion met
7) COc1ccc(C(=O)CC2(O)C(=O)Nc3c(Cl)ccc(Cl)c32)cc1 (centres undefined)
Criterion met
8) CN(CCOc1ccc(-c2ccc3c(c2)OCO3)cc1C(C)(C)C)CC(=O)O
Criterion not met
9) CCCCN(CCCC)CCCOC(=O)c1ccc(N)cc1
Criterion met

---

Let's look at some compounds and their measured cell viability.
- Tested on: HepG2
- Run description: cell viability relative to DMSO; higher = less toxic
- Test conditions: 72 h; 1 nM
Observed property: cell viability (%)

1) C=C1CCN([C@H](C)[C@](O)(Cn2cncn2)c2ccc(F)cc2F)CC1 [efinaconazole]
102
2) CCCCN(CCCC)CCCOC(=O)c1ccc(N)cc1 [butacaine]
108
3) CN1C2CCCC1CC(NC(=O)c1nn(C)c3ccccc13)C2 (centres undefined) [granisetron]
109
4) CC(C)c1ccc(-c2cc(=O)c3ccccc3o2)cc1 [MN-64]
91.9
5) O=S(=O)(/N=C/c1c(O)ccc2ccccc12)c1cccs1
100
6) C[N+]1(C)[C@@H]2CC[C@H]1C[C@@H](OC(=O)C(CO)c1ccccc1)C2 (some centres undefined) [methylatropine-nitrate]
96.7
7) CCc1cccc(CC)c1NC(=O)CN(CC(=O)O)CC(=O)O [etifenin]
104
8) CCOC(=O)N1CSC[C@H]1C(=O)O [telmesteine]
101
9) C[C@@H](Oc1cc(-n2cnc3ccc(CN4CCN(C)CC4)cc32)sc1C(N)=O)c1ccccc1C(F)(F)F
98.2

---

- System: Calu-3
- Run description: cell viability relative to DMSO; higher = less toxic
- Test conditions: 72 h; 1 nM
Observed property: cell viability (%)

1) CCN(CC)CCNc1ccc(CO)c2sc3ccccc3c(=O)c12
101
2) Cc1cc(SCc2sc(-c3ccc(C(F)(F)F)c(F)c3)nc2C)ccc1OCC(=O)O
95.1
3) CCCS(=O)(=O)Nc1ccc(F)c(C(=O)c2c[nH]c3ncc(-c4ccc(Cl)cc4)cc23)c1F
102
4) CN1CCN(c2ccc3[nH]c(-c4ccc5[nH]c(-c6ccc(O)cc6)nc5c4)nc3c2)CC1
108

---

- System: Vero E6
- Run description: cell viability relative to DMSO; higher = less toxic
- Test conditions: 72 h; 1000 nM
Let's look at some compounds and their measured cell viability.
Observed property: cell viability (%)

1) CS(=O)(=O)Oc1ccc2c(NC(N)=O)c(C(=O)c3ccc(Cl)cc3Cl)oc2c1
84.4
2) CC(C)(C)C(=O)OCOC(=O)[C@@H]1N2C(=O)C[C@H]2S(=O)(=O)C1(C)C
99.1
3) O=C(O)Cn1c2c(c3cc(F)ccc31)CN(C(=O)c1cccc3ccccc13)CC2
99.9
4) C/C(=N\NC(=O)[C@@H]1C(=O)NC[C@H]1c1ccccc1)c1cccc(Br)c1
98.2
5) CC(=O)[C@H]1CC[C@H]2[C@@H]3CC[C@H]4C[C@H](O)CC[C@]4(C)[C@H]3C(=O)C[C@]12C
94.3
6) CN1C(=O)c2c(nn(Cc3ccc(-c4cccc(F)n4)cc3)c2Nc2ccccc2)N2C1=N[C@@H]1CCC[C@@H]12
104
7) O=C(/C=C/c1ccccc1)NCCO
104
8) CN1C(=O)N(c2ccc(C#N)c(C(F)(F)F)c2)C(=O)[C@]1(CO)c1ccccc1 [GLPG0492-R-enantiomer]
97
9) C=CCN1C[C@H](C)N([C@H](c2ccc(C(=O)N(CC)CC)cc2)c2cccc(O)c2)C[C@H]1C
94.9
10) S=C(NCc1ccc2c(c1)OCO2)N1CCN(c2ncnc3c2oc2ccccc23)CC1
90.4
11) OC(CN1CCN(c2cccc(Cl)c2)CC1)C(c1ccccc1)c1ccccc1 (stereo unspecified)
99.7
